Here, compounds appear alongside IC50 reported for Serine/threonine-protein kinase mTOR (Homo sapiens, UniProt P42345) in the literature.

Incoming: IC50 of Cc1noc(C)c1-c1cnc2c(N3CCOCC3)nc(-c3ccc(NC(=O)Nc4ccc(C(=O)N(C)C)cc4)c(F)c3)nc2c1 on Serine/threonine-protein kinase mTOR (Homo sapiens, UniProt P42345)?
Outgoing: < 0.05 µM

Incoming: IC50 of C[C@H](O)C(=O)N1CCN(c2nc3c(N4CCOCC4)nc(-c4cnc(N)nc4)nc3n2CC2CC2)C[C@H]1C on Serine/threonine-protein kinase mTOR (Homo sapiens, UniProt P42345)?
Outgoing: 0.01 to 0.03 µM

Incoming: IC50 of CC(C)(C)OC(=O)N1CCC(n2cnc3c(-c4cccc5[nH]ccc45)nc(N4CCOCC4)nc32)C1 (centres unmarked) on Serine/threonine-protein kinase mTOR (Homo sapiens, UniProt P42345)?
Outgoing: 1 to 5 µM

Incoming: IC50 of Cc1ccc(-c2ccc3ncc4c(c3c2)n(-c2cc(C)nn2C)c(=O)n4C)cn1 on Serine/threonine-protein kinase mTOR (Homo sapiens, UniProt P42345)?
Outgoing: 0.105 µM

Incoming: IC50 of COCCn1cnc2c(-c3ccc4cc[nH]c4c3)nc(N3CCOCC3)nc21 on Serine/threonine-protein kinase mTOR (Homo sapiens, UniProt P42345)?
Outgoing: 1 to 5 µM

***
Incoming: IC50 of O=c1[nH]c2ncc(-c3cc(F)c4[nH]ccc4c3)cc2n1CC1CCOCC1 on Serine/threonine-protein kinase mTOR (Homo sapiens, UniProt P42345)?
Outgoing: < 0.05 µM

Incoming: IC50 of CN(C)C(=O)c1ccc(NC(=O)Nc2ccc(-c3nc(N4CCOCC4)c4ccc(-c5cnc(N(C)C)nc5)cc4n3)c(F)c2)cc1 on Serine/threonine-protein kinase mTOR (Homo sapiens, UniProt P42345)?
Outgoing: < 0.05 µM

Incoming: IC50 of CN(C)C(=O)c1ccc(NC(=O)Nc2ccc(-c3nc(N4CCOCC4)c4ccc(-c5ccncc5)cc4n3)cc2F)cc1 on Serine/threonine-protein kinase mTOR (Homo sapiens, UniProt P42345)?
Outgoing: 0.05 to 0.2 µM
